- TESTED_TARGET: Sodium- and chloride-dependent GABA transporter 1 (Mus musculus)
- PROCEDURE_DETAILS: Inhibition of mouse GAT1 expressed in HEK293 cell line assessed as reduction in [3H]GABA uptake at 100 uM incubated for 10 mins relative to control
- Assay type: cell-based
The molecules listed here are annotated with their inhibition.
The response must be a number in % with no trailing unit.

Challenge: Quote inhibition reported for COc1cccc(CNC[C@@H](O)[C@H](Cc2ccccc2)NC(=O)C(c2ccccc2)c2ccccc2)c1 please.
Response given: 61

Challenge: Supply reported inhibition belonging to this molecule: C[C@H](NC[C@@H](O)[C@H](Cc1ccccc1)NC(=O)C(c1ccccc1)c1ccccc1)c1ccccc1
Response given: 77

Challenge: // fetch inhibition given entry COc1cccc(CNC[C@@H](O)[C@H](Cc2ccccc2)NC(=O)CC(c2ccccc2)c2ccccc2)c1
Response given: 67
